target: human GABAA α1β2γ1 receptor (Homo sapiens (Human), UniProt P14867+Q8N1C3); assay: Radioligand binding assay, competition for [3H]RO7239181, γ1-containing GABAA subtypes; conditions: membranes of HEK293F cells, [3H]RO7239181 20-30 nM, Table 1; read-out: Ki h-GABAA α1β2γ1
Below, each of the compounds is paired with its reported pKi value.
Scale explanation: pKi corresponds to minus log10 of a concentration expressed in moles per litre.

Use these answered entries as a reference point.
substance_smiles	pKi
[2H]C1([2H])OCc2c(sc3c2C(c2c(F)cccc2F)=N[C@@H](C)c2nc(C(=O)NCC)nn2-3)OC1([2H])[2H]	6.91
C[C@@H]1N=C(c2c(F)cccc2F)c2c(sc3c2COC[C@H](C)O3)-n2nc(C(=O)N3CC(F)C3)nc21	6.54

// next item, pKi requested
Query block: Dear colleague, I am looking for the recorded pKi of the following compound: C[C@@H]1N=C(c2c(F)cccc2F)c2c(sc3c2COCCO3)-n2nc(C(=O)NCC(C)(C)O)nc21
Result block: 6.99
